Tested on: EV-D68
Assay: microbe, parasite or virus in culture
Type: cell-based, enterovirus D68
Settings: Enterovirus D, EVD68, HeLa R19, […], read-out: EC50 Exp1
ASSAY_ENDPOINT: EC50 (µM)
Answer format: numeric, µM implied, no suffix.

Observe how each entry below is paired with its result.
O=C(c1ccco1)N(Cc1ccc(C(F)(F)F)cc1)c1ccccc1 [Compound 19d] :: 3.84
COc1ccc(N(Cc2ccc(F)cc2)C(=O)c2cc[nH]c2)cc1 [Compound 12a] :: 3.04

Query compound follows.
For the record O=C(c1ccco1)N(Cc1ccc(F)cc1)c1ccccc1 [Compound 19b] , what value of EC50 is listed for EV-D68?
1.87

* * *

Molecular target: human NET (Homo sapiens, UniProt P23975)
Construct: expressed in transfected cells; host or cells: HEK293 (gift of Dr. Hoener, F. Hoffmann-La Roche)
Sequence (P23975 whole entry): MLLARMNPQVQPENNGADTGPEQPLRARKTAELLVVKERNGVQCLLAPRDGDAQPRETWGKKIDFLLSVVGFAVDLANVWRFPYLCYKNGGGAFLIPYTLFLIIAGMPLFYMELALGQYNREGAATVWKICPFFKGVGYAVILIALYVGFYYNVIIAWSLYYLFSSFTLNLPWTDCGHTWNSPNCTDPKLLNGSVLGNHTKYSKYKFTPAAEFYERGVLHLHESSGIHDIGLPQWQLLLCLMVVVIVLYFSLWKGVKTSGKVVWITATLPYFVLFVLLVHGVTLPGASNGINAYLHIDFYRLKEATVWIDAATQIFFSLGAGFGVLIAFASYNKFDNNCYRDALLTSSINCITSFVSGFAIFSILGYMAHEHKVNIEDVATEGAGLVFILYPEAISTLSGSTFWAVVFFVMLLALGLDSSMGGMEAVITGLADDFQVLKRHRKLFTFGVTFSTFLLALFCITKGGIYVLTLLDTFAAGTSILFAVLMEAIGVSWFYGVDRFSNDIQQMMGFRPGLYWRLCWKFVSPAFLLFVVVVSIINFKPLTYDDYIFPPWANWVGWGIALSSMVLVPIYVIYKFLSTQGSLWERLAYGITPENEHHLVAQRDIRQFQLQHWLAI
Assay type: cell-based
Conditions: 1µM; Control = 100
ASSAY_ENDPOINT: NET, Mean (Figure 8B)
# output: bare number, no unit

Observe how each entry below is paired with its result.
O=C(c1ccco1)N(Cc1ccc(C(F)(F)F)cc1)c1ccccc1 [Compound 19d] :: 125.873
O=C(c1ccco1)N(Cc1ccc(F)cc1)c1ccccc1 [Compound 19b] :: 124.304
O=C(c1cc[nH]c1)N(Cc1ccc(F)cc1)c1ccccc1 [Compound 12b] :: 100

Query compound follows.
Quick check: NET, Mean (Figure 8B) of COc1ccc(N(Cc2ccc(F)cc2)C(=O)c2cc[nH]c2)cc1 [Compound 12a] ?
121.035

* * *

Listed next: entries and their corresponding CC50.
Assay: in vitro
Conditions: monkey, CC50
Answer format: numeric, µM implied, no suffix.

COc1ccc(N(Cc2ccc(F)cc2)C(=O)c2ccco2)cc1 :: 50.6
O=C(c1ccco1)N(Cc1ccc(C(F)(F)F)cc1)c1ccccc1 [Compound 19d] :: 92.6

Query molecule follows.
Quick check: CC50 of COc1ccc(N(Cc2ccc(F)cc2)C(=O)c2cccs2)cc1 ?
66

* * *

Experiment: in vitro
Conditions: monkey, CC50
ASSAY_ENDPOINT: CC50

Observe how each entry below is paired with its result.
O=C(c1ccc[nH]1)N(Cc1ccc(C(F)(F)F)cc1)c1ccccc1 [Compound 22] :: > 100 µM
O=C(c1ccco1)N(Cc1ccccc1)c1ccc(C(F)(F)F)cc1 [Compound 19i] :: 55.4 µM
COc1ccc(N(Cc2ccc(F)cc2)C(=O)c2cc[nH]c2)cc1 [Compound 12a] :: > 100 µM
Cc1ccc(CN(C(=O)c2ccco2)c2ccccc2)cc1 [Compound 19g] :: > 100 µM
COc1ccc(N(Cc2ccc(F)cc2)C(=O)c2ccccn2)cc1 [Compound 5e] :: > 100 µM
CC(C)c1ccc(CN(C(=O)c2ccco2)c2ccccc2)cc1 [Compound 19h] :: 46.8 µM
O=C(c1ccco1)N(Cc1ccc(S(F)(F)(F)(F)F)cc1)c1ccccc1 [Compound 19f] :: 31.9 µM
COc1ccc(N(Cc2ccccc2)C(=O)c2ccco2)cc1 [Compound 19c] :: > 100 µM

Query compound follows.
Quick check: CC50 of COc1ccc(N(Cc2ccc(F)cc2)C(=O)c2ccc[nH]2)cc1 [Compound 5c] ?
> 100 µM

* * *

Tested on: CV-A24v
Assay: microbe, parasite or virus in culture
Format: cell-based, coxsackievirus A24v
Conditions: Coxsackievirus, HeLa R19, read-out: EC50 CV-A24v strain 110389
ASSAY_ENDPOINT: EC50 (µM)
Answer format: numeric, µM implied, no suffix.

O=C(c1ccco1)N(Cc1ccc(F)cc1)c1ccccc1 [Compound 19b] :: 5.65
O=C(c1ccco1)N(Cc1ccc(C(F)(F)F)cc1)c1ccccc1 [Compound 19d] :: 18.6

Query compound follows.
For the record COc1ccc(N(Cc2ccc(F)cc2)C(=O)c2cc[nH]c2)cc1 [Compound 12a] , what value of EC50 is listed for CV-A24v?
3.77
